Taken from patent US20070148712A1.

System Under Test: 2E9 MAb
Assay Protocol: Competitive ELISA for 4-OHE1-2-NAcCys: inhibition of 2E9 MAb binding to immobilized antigen
Reported Conditions: wells coated with OA-4-OHE1(E2)-2-NAcCys-16a,β-MCC, regression analysis, read-out: I50 (quantity producing 50% inhibition of MAb binding in the ELISA)
Observable: pIC50
Field pIC50 (float): negative decimal logarithm of the concentration in molar.

C[C@]12CC[C@@H]3c4c(-n5cnc(=N)c6[nH]cnc65)cc(O)c(O)c4CC[C@H]3[C@@H]1CCC2=O
4.82

Identify measured pIC50 associated with CC(=O)NC(CSc1cc2c(c(O)c1O)CCC1C2CCC2(C)C(=O)CCC12)C(=O)O (centres unmarked) 8.25

----------
# reported Association rate, kon; entries follow
Test system: 2E9 MAb
Assay Protocol: Indirect competitive ELISA measuring equilibrium association constant and association/dissociation rates of MAb-hapten complexes
Type: binding, mouse
Reported Conditions: in the presence of 2E9 MAb; indirect competitive ELISA
Field: numeric (M⁻¹ s⁻¹). Do not append units.

Before answering, review these 3 worked examples.
CC(=O)N[C@@H](CSc1cc2c(c(O)c1O)CC[C@@H]1[C@@H]2CC[C@]2(C)[C@@H](O)CC[C@@H]12)C(=O)O
460000
C[C@]12CC[C@@H]3c4c(-n5cnc(=N)c6[nH]cnc65)cc(O)c(O)c4CC[C@H]3[C@@H]1CC[C@@H]2O
6500
C[C@]12CC[C@@H]3c4ccc(O)c(O)c4CC[C@H]3[C@@H]1CC[C@@H]2O
15000

Read the entry "CC(=O)N[C@@H](CS)C(=O)O" and write its reported Association rate, kon. 77000

----------
Test system: 2E9 MAb
Assay Protocol: Indirect competitive ELISA measuring equilibrium association constant and association/dissociation rates of MAb-hapten complexes
Assay type: binding, mouse
Reported Conditions: in the presence of 2E9 MAb; indirect competitive ELISA, equilibrium
Observable: Association constant, KA
In your response, put the unit directly after the numeric value.

Past entries and their recorded results:
CC(=O)N[C@@H](CS)C(=O)O
2.1e+06 M⁻¹
CC(=O)N[C@@H](CSc1cc2c(c(O)c1O)CC[C@@H]1[C@@H]2CC[C@]2(C)[C@@H](O)CC[C@@H]12)C(=O)O
1.8e+08 M⁻¹
C[C@]12CC[C@@H]3c4ccc(O)c(O)c4CC[C@H]3[C@@H]1CCC2=O
250000 M⁻¹

Please supply the value of reported Association constant, KA for the item "C[C@]12CC[C@@H]3c4ccc(O)c(O)c4CC[C@H]3[C@@H]1CC[C@@H]2O" 250000 M⁻¹

Indicate the recorded Association constant, KA value for this compound: "C[C@]12CC[C@@H]3c4c(-n5cnc(=N)c6[nH]cnc65)cc(O)c(O)c4CC[C@H]3[C@@H]1CC[C@@H]2O" 67000 M⁻¹
